# TARGET_OF_ASSAY: HCV NS3/4A protease complex, BMS strain (UniProt P27958, C1454S/C1711G, species not given/STRAIN_BMS)
# RUN_DESCRIPTION: Recombinant HCV NS3/4A protease complex FRET peptide assay (BMS strain)
# Format: biochemical, HCV genotype 1a
# CONDITION_NOTES: NS3/4A BMS strain; read-out: IC50 range
pIC50: −log10 of the molar value.
OBSERVED_PROPERTY: pIC50

Solved cases below.
• C=C[C@@H]1C[C@]1(NC(=O)[C@@H]1C[C@@H](Oc2nc(N3CCOCC3)cc3cc(OC)ccc23)CN1C(=O)[C@@H](NC(=O)OC(C)(C)C)C(C)(C)C)C(=O)NS(=O)(=O)C1CC1 = > 7.00
• C=C[C@@H]1C[C@]1(NC(=O)[C@@H]1CC(Oc2nccc3cc(OC)ccc23)CN1C(=O)[C@H](CC(C)C)N(C)C(=O)OC(C)(C)C)C(=O)NS(=O)(=O)C1CC1 (stereo partly drawn) = 5.00 to 6.00

# next compound below
Q. So what does the record say about pIC50 for C=CC1CC1(NC(=O)[C@@H]1C[C@@H](Sc2cccc3ccccc23)CN1C(=O)[C@@H](NC(=O)OC(C)(C)C)C(C)(C)C)C(=O)NS(C)(=O)=O (stereo partly drawn) ?
A. 5.00 to 6.00

----------
# System: HCV replicon in Huh7 cells
# RUN_DESCRIPTION: HCV replicon cell-based assay
# Parameters: species or system HCV strain 1B
# CONDITION_NOTES: Hepatitis C virus, Huh-7; HCV replicon, Huh7 cells; read-out: EC50 range
# Method: HCV Replicon Cell-based Assay This system enabled us to evaluate the effects of our HCV Protease compounds on HCV RNA replication. […] Huh7 cells, constitutively expressing the HCV replicon, were grown in Dulbecco's Modified Eagle Media (DMEM) containing 10% Fetal calf serum (FCS) and 1 mg/ml G418 (Gibco-BRL). […] The plate was then placed into the Cytofluor 4000 instrument which had been set to 340 nm excitation/490 emission, automatic mode for 21 cycles and the plate read in a kinetic mode. […]
pEC50: −log10 of the molar value.
The following molecules are listed with their measured pEC50 values.

* C=C[C@@H]1C[C@]1(NC(=O)[C@@H]1C[C@@H](Oc2nc(-c3ccc(OC)cc3)cc3ccccc23)CN1C(=O)[C@@H](NC(=O)OC(C)(C)C)C(C)(C)C)C(=O)NS(=O)(=O)C1CC1 | > 7.00

Q. Tell me the measured pEC50 of C=C[C@@H]1C[C@]1(NC(=O)[C@@H]1C[C@@H](Oc2nc(Cl)cc3cc(OC)ccc23)CN1C(=O)[C@@H](NC(=O)OC(C)(C)C)C(C)(C)C)C(=O)NS(=O)(=O)C1CC1 , please.
A. 6.00 to 7.00

Q. Same question for C=C[C@@H]1C[C@]1(NC(=O)[C@@H]1CC(Oc2nccc3cc(OC)ccc23)CN1C(=O)[C@H](CCCC)N(C)C(=O)OC(C)(C)C)C(=O)NS(=O)(=O)C1CC1 (some centres unmarked) please.
A. 4.00 to 5.00

Q. Another molecule to look at: C=C[C@@H]1C[C@]1(NC(=O)[C@@H]1C[C@@H](Oc2nccc3cc(OC)ccc23)CN1C(=O)[C@@H](NC(=O)NC(C)(C)C)[C@H](C)OC)C(=O)NS(=O)(=O)C1CC1
A. > 7.00

Q. # iterate: C=C[C@@H]1C[C@]1(NC(=O)[C@@H]1C[C@@H](Oc2nccc3cc(OC)ccc23)CN1C(=O)[C@@H](NC(=O)OCC(C)(C)C)C(C)(C)C)C(=O)NS(=O)(=O)C1CCC1
A. 6.00 to 7.00

----------
# Tested on: HCV replicon in Huh7 cells
# RUN_DESCRIPTION: HCV replicon cell-based assay
# Parameters: species or system HCV strain 1B
# CONDITION_NOTES: Hepatitis C virus, Huh-7; HCV replicon, Huh7 cells; read-out: EC50 range
pEC50: −log10 of the molar value.
Consider the following compounds and their measured pEC50 readings.

# example entries with known answers
• C=C[C@@H]1C[C@]1(NC(=O)[C@@H]1C[C@@H](Oc2nccc3c(Cl)cccc23)CN1C(=O)[C@@H](NC(=O)OC(C)(C)C)C(C)(C)C)C(=O)NS(=O)(=O)C1CC1 [Compound 254] = > 7.00
• C=C[C@@H]1C[C@]1(NC(=O)[C@@H]1C[C@@H](Oc2ccnc(-c3nccs3)c2)CN1C(=O)[C@@H](NC(=O)OC1CCCC1)C(C)(C)C)C(=O)NS(=O)(=O)C1CC1 [Compound 431] = 6.00 to 7.00
• C=CC1C[C@]1(NC(=O)[C@@H]1C[C@@H](Oc2nnc(OC)c3ccccc23)CN1C(=O)[C@@H](NC(=O)OC(C)(C)C)C(C)(C)C)C(=O)NS(=O)(=O)C1CC1 (stereo partly shown) [Compound 201] = > 7.00
• C=CC1C[C@]1(NC(=O)[C@@H]1C[C@@H](Oc2cc3c(Cl)nccc3c3c2OCO3)CN1C(=O)[C@@H](NC(=O)OC(C)(C)C)C(C)(C)C)C(=O)NS(=O)(=O)C1CC1 (stereo partly shown) [Compound 212] = > 7.00
• C=C[C@@H]1C[C@]1(NC(=O)[C@@H]1C[C@@H](Oc2nccc3cc(OC)c(F)cc23)CN1C(=O)[C@@H](NC(=O)OC(C)(C)C)C(C)(C)C)C(=O)NS(=O)(=O)C1CC1 [Compound 261] = > 7.00

Q. Give recorded pEC50 with HCV replicon in Huh7 cells for the following compound: C=C[C@@H]1C[C@]1(NC(=O)[C@@H]1C[C@@H](Oc2nccc3cc(OC)ccc23)CN1C(=O)[C@@H](NC(=O)OC(C)(C)C)c1ccccc1)C(=O)NS(=O)(=O)C1CC1 [Compound 134]
A. 6.00 to 7.00

Q. Now the same for CC[C@@H]1C[C@]1(NC(=O)[C@@H]1C[C@@H](Oc2nccc3c(Cl)cccc23)CN1C(=O)[C@@H](NC(=O)OC(C)(C)C)C(C)(C)C)C(=O)NS(=O)(=O)C1CC1 [Compound 294]
A. 6.00 to 7.00

Q. Further, for C=C[C@@H]1CC1(NC(=O)[C@@H]1CC(Oc2nccc3cc(OC)ccc23)CN1C(=O)[C@@H](NC(=O)OC1(C)CCCC1)C(C)(C)C)C(=O)NS(=O)(=O)C1CC1 (stereo partly shown) [Compound 69] ?
A. > 7.00

Q. Entry to check: C=CC1C[C@]1(NC(=O)[C@@H]1C[C@@H](Oc2ccnc3c(C(F)(F)F)cccc23)CN1C(=O)[C@@H](NC(=O)OC(C)(C)C)C(C)(C)C)C(=O)NS(=O)(=O)C1CC1 (stereo partly shown) [Compound 186]
A. > 7.00

Q. Could you do the same for C=C[C@@H]1C[C@]1(NC(=O)[C@@H]1C[C@@H](Oc2nccc3cc(OC)ccc23)CN1C(=O)[C@@H](NC(=O)N[C@H](C(=O)OCC)C(C)C)C(C)(C)C)C(=O)NS(=O)(=O)C1CC1 [Compound 148] , please?
A. > 7.00

----------
# TARGET_OF_ASSAY: HCV NS3/4A protease complex, BMS strain (UniProt P27958, C1454S/C1711G, species not given/STRAIN_BMS)
# RUN_DESCRIPTION: Recombinant HCV NS3/4A protease complex FRET peptide assay (BMS strain)
# Format: biochemical, HCV genotype 1a
# CONDITION_NOTES: BMS strain; read-out: IC50 against the NS3/4A BMS strain in the enzyme assay
OBSERVED_PROPERTY: IC50 (nM)
Enter your answer as a number in nM; do not include the unit.

Q. Give the measured IC50 of C=C[C@@H]1C[C@]1(NC(=O)[C@@H]1C[C@@H](Oc2nc(C3CC3)cc3ccccc23)CN1C(=O)[C@@H](NC(=O)OC(C)(C)C)C(C)(C)C)C(=O)NS(=O)(=O)C1CC1 [Compound 34] .
A. 23

----------
# TARGET_OF_ASSAY: HCV NS3/4A protease complex, BMS strain (UniProt P27958, C1454S/C1711G, species not given/STRAIN_BMS)
# RUN_DESCRIPTION: Recombinant HCV NS3/4A protease complex FRET peptide assay (BMS strain)
# Format: biochemical, HCV genotype 1a
# CONDITION_NOTES: NS3/4A BMS strain; read-out: IC50 range
pIC50: −log10 of the molar value.
The entries below are paired with their reported pIC50.

# annotated cases, reported pIC50 shown
* C=C[C@@H]1C[C@]1(NC(=O)[C@@H]1C[C@@H](Oc2nccc3ccc(Cl)cc23)CN1C(=O)[C@@H](NC(=O)OC(C)(C)C)C(C)(C)C)C(=O)NS(=O)(=O)C1CC1 | > 7.00
* C=CC1CC1(NC(=O)C1CC(Oc2nc(-c3ccccc3)nc3ccc(OC)cc23)CN1C(=O)[C@@H](NC(=O)OC(C)(C)C)C(C)(C)C)C(=O)NS(=O)(=O)C(C)C (mixture of isomers) | 6.00 to 7.00
* C=CC1C[C@]1(NC(=O)[C@@H]1C[C@@H](Oc2nccc3c(C(=O)c4cccs4)c(OC)ccc23)CN1C(=O)[C@@H](NC(=O)OC(C)(C)C)C(C)(C)C)C(=O)NS(=O)(=O)C1CC1 (some centres unmarked) | > 7.00
* C=C[C@@H]1C[C@]1(NC(=O)[C@@H]1CC(Oc2nccc3cc(OC)ccc23)CN1C(=O)[C@H](C(C)C)N(C)C(=O)OC(C)(C)C)C(=O)NS(=O)(=O)C1CC1 (some centres unmarked) | 6.00 to 7.00

Next:
Q. What does the record list as pIC50 for C=CC1C[C@]1(NC(=O)[C@@H]1C[C@@H](Oc2noc3cc(OC)ccc23)CN1C(=O)[C@@H](NC(=O)OC(C)(C)C)C(C)(C)C)C(=O)NS(=O)(=O)C1CC1 (some centres unmarked) ?
A. > 7.00

Sourced from patent US7915291B2
